Test system: Vero E6 infected with SARS-CoV-2
Assay: SARS-CoV-2 infection rate relative to infected DMSO; higher = more infection, active = 60 or less
Conditions: 24 h
Readout: SARS-CoV-2 infection rate (%)
Just the number please, in %, no unit attached.

Some entries whose results are on file:
O=C(O[C@H]1C[C@H]2CC[C@@H](C1)[N+]21CCCC1)C(O)(c1ccccc1)c1ccccc1 [trospium] (10 µM); 102
CN/C(=N\CCSCc1nc[nH]c1C)NC#N [cimetidine] (10 µM); 97.5
C/C=C1\[C@H]2C=C(C)C[C@]1(N)c1ccc(=O)[nH]c1C2 [(-)-Huperzine A] (10 µM); 108
CCCCCCCCCCCCCCCC[n+]1ccn(Cc2ccccc2)c1C (0.833333 µM); 104
O=C(N[C@@H]1CC[C@@H](c2cccc(F)c2F)CN(CC(F)(F)F)C1=O)N1CCC(n2c(=O)[nH]c3ncccc32)CC1 [telcagepant] (10 µM); 102

Short answer for CCC(Cc1c(I)cc(I)c(N)c1I)C(=O)O (centres undefined) [iopanic-acid] (10 µM) : SARS-CoV-2 infection rate was 116

Reported SARS-CoV-2 infection rate ( COc1ncc(-c2ccc3nccc(-c4ccnnc4)c3c2)cc1NS(=O)(=O)c1ccc(F)cc1F (0.833333 µM) ) = 110

Data point: Nc1nc(=O)c2sc(=O)n([C@@H]3O[C@H](CO)[C@@H](O)[C@H]3O)c2[nH]1 (10 µM) ; SARS-CoV-2 infection rate = 100

Memo: O=c1c(-c2ccc(O)cc2)coc2c([C@@H]3O[C@H](CO)[C@@H](O)[C@H](O)[C@H]3O)c(O)ccc12 [puerarin] (10 µM) , reported SARS-CoV-2 infection rate: 98.5

The value of SARS-CoV-2 infection rate measured for the molecule CCNC(=O)c1n[nH]c(-c2cc(Cl)c(O)cc2O)c1-c1ccc(OC)cc1 (10 µM) turned out to be 104

Lab note: measured SARS-CoV-2 infection rate of CC1CCN(C(c2ccc(F)cc2)c2ccc(C(C)C(=O)O)cc2-c2ccc(C(F)(F)F)cc2)CC1 (centres undefined) (10 µM) was 106

// CCCC(CCC)C(=O)Nc1ccn([C@@H]2O[C@H](CO)[C@@H](O)C2(F)F)c(=O)n1 (0.833333 µM) : SARS-CoV-2 infection rate value = 100

Kindly note the recorded SARS-CoV-2 infection rate for COc1ccc(/C=C/C(=O)/C=C(O)/C=C/c2ccc(OC)c(OC)c2)cc1OC (10 µM) , which is 80.5

What the record says about OC(CCN1CCCCC1)(c1ccccc1)c1ccccc1 [pridinol] (10 µM) : SARS-CoV-2 infection rate is 108

====

Tested on: Vero E6 infected with SARS-CoV-2
Test: inhibition of SARS-CoV-2 cytopathic effect; higher = more antiviral protection, active = above 15
Conditions: 100 nM; 48 h
inhibition of SARS-CoV-2 cytopathic effect overview
Unit % implied. Number only.

Some solved entries appear below for comparison.
Oc1ccc(/C=C/c2cc(O)cc(O)c2)cc1; -2.17
CCN1/C(=C/C(C)=O)Sc2ccc(OC)cc21; -2.1
C[C@H]1CCC/C=C/[C@@H]2C[C@H](O)C[C@H]2[C@H](O)/C=C/C(=O)O1; 47.2
CN(CCOc1ccc(CC2SC(=O)NC2=O)cc1)c1ccccn1 (stereo not given); -4.45
COc1cc2c(cc1Cc1cccc(Cl)c1F)c(=O)c(C(=O)O)cn2[C@H](CO)C(C)C; 1.54

Per the records, this compound ( O=C(NCNC(=O)NC1C(=O)NC(=O)N1CO)NC1C(=O)NC(=O)N1CO (stereo not given) ) has inhibition of SARS-CoV-2 cytopathic effect equal to -1.76

For "Cc1cc(C)c(S(=O)(=O)Nc2cccc(C(F)(F)F)c2)c(C)c1" the compound record lists inhibition of SARS-CoV-2 cytopathic effect as 1.15
